Data credit: patent US9695155B2

- Test system: wheat
- TEST_PROTOCOL: Test A postemergence
- Assay type: in vivo, Triticum aestivum
- RUN_CONDITIONS: 125 g ai/ha, 0 to 100 scale where 0 is no effect and 100 is complete control
OBSERVED_PROPERTY: Plant response rating, Wheat
Give only the figure.

Can you share its Plant response rating, Wheat? I mean this compound: `Cc1nn(-c2ccccc2Oc2ncc(Cl)cn2)cc1Cl`
0

Can you share its Plant response rating, Wheat? I mean this compound: `FCc1cccc(Oc2ncc(Cl)cn2)c1-n1cc(Br)cn1`
0

Can you share its Plant response rating, Wheat? I mean this compound: `N#Cc1cccc(Oc2ncc(I)cn2)c1-n1cc(Cl)cn1`
0

Can you share its Plant response rating, Wheat? I mean this compound: `FC(F)(F)c1cnn(-c2ccccc2Oc2ncc(Cl)cn2)c1`
70

Can you share its Plant response rating, Wheat? I mean this compound: `Brc1cnc(Oc2ccccc2-n2cc(Br)c(Br)n2)nc1`
0

Can you share its Plant response rating, Wheat? I mean this compound: `FC(F)(F)c1ccn(-c2ccccc2Sc2ncc(Cl)cn2)n1`
0

Can you share its Plant response rating, Wheat? I mean this compound: `N#Cc1cccc(Oc2ncc(F)cn2)c1-n1cc(I)cn1`
50

Can you share its Plant response rating, Wheat? I mean this compound: `Cc1cnn(-c2ccccc2Oc2ncc(Cl)cn2)c1`
0

Can you share its Plant response rating, Wheat? I mean this compound: `CC(=O)c1cccc(Oc2ncc(Cl)cn2)c1-n1cc(Br)cn1`
0

Can you share its Plant response rating, Wheat? I mean this compound: `CCOc1cn(-c2c(Br)cccc2Oc2ncc(Cl)cn2)nn1`
30

Can you share its Plant response rating, Wheat? I mean this compound: `FC(F)c1cnn(-c2ccccc2Oc2ncc(Br)cn2)c1`
10

Can you share its Plant response rating, Wheat? I mean this compound: `CC(C)(C)c1cnn(-c2c(C#N)cccc2Oc2ncc(Cl)cn2)c1`
0

Can you share its Plant response rating, Wheat? I mean this compound: `Cc1ccn(-c2ccccc2Oc2ncc(Cl)cn2)n1`
0

Can you share its Plant response rating, Wheat? I mean this compound: `Clc1cnc(Oc2ccccc2-n2cnc(Br)n2)nc1`
0

Can you share its Plant response rating, Wheat? I mean this compound: `N#Cc1cnn(-c2c(C#N)cccc2Oc2ncc(I)cn2)c1`
0

* * *

- System: galium
- TEST_PROTOCOL: Test C postemergence
- Type: in vivo, Galium aparine
- RUN_CONDITIONS: Postemergence, 62 g ai/ha; scale 0 to 100 (0 no effect, 100 complete control)
The threshold is 60. Values of Plant response rating, Galium beneath it are tagged y; values meeting or exceeding it are tagged n.

Take the molecule N#Cc1cccc(Oc2ncc(Cl)cn2)c1-n1cnc(Br)c1 [Compound 74] and say whether its Plant response rating, Galium is less than 60.
y

Take the molecule CCOc1cnn(-c2c(C#N)cccc2Oc2ncc(Cl)cn2)c1 [Compound 92] and say whether its Plant response rating, Galium is less than 60.
n

Take the molecule FCc1cccc(Oc2ncc(Cl)cn2)c1-n1cc(Br)cn1 [Compound 83] and say whether its Plant response rating, Galium is less than 60.
n

Take the molecule FCc1cccc(Oc2ncc(Br)cn2)c1-n1cc(C(F)(F)F)cn1 [Compound 120] and say whether its Plant response rating, Galium is less than 60.
y

Take the molecule N#Cc1cnn(-c2c(C#N)cccc2Oc2ncc(F)cn2)c1 [Compound 111] and say whether its Plant response rating, Galium is less than 60.
n

Take the molecule CCCOc1cnn(-c2c(C#N)cccc2Oc2ncc(Cl)cn2)c1 [Compound 150] and say whether its Plant response rating, Galium is less than 60.
n

Take the molecule Fc1cccc(Oc2ncc(Cl)cn2)c1-n1cc(C2CC2)nn1 [Compound 155] and say whether its Plant response rating, Galium is less than 60.
n

Take the molecule CCOc1cnn(-c2c(C#N)cccc2Oc2ncc(F)cn2)c1 [Compound 89] and say whether its Plant response rating, Galium is less than 60.
y

* * *

- Tested on: giant foxtail
- TEST_PROTOCOL: Test A preemergence
- Type: in vivo, Setaria faberii
- RUN_CONDITIONS: 31 g ai/ha, 0 to 100 scale where 0 is no effect and 100 is complete control, visual, approximately 10 days
Field: Plant response rating, Foxtail, Giant. Provide a value for each of the compounds that follow.
Give only the figure.

Can you share its Plant response rating, Foxtail, Giant? I mean this compound: CC(C)Oc1cnn(-c2c(C#N)cccc2Oc2ncc(F)cn2)c1 [Compound 158]
60

Can you share its Plant response rating, Foxtail, Giant? I mean this compound: FCc1cccc(Oc2ncc(Cl)cn2)c1-n1cc(Cl)cn1 [Compound 250]
30

Can you share its Plant response rating, Foxtail, Giant? I mean this compound: FC(F)c1cccc(Oc2ncc(Cl)cn2)c1-n1cncc1Br [Compound 259]
30

Can you share its Plant response rating, Foxtail, Giant? I mean this compound: Cc1cc(C(F)F)nn1-c1ccccc1Oc1ncc(Cl)cn1 [Compound 267]
0

Can you share its Plant response rating, Foxtail, Giant? I mean this compound: CC(C)Oc1cnn(-c2c(Br)cccc2Oc2ncc(Cl)cn2)c1 [Compound 148]
10

Can you share its Plant response rating, Foxtail, Giant? I mean this compound: FC(F)(F)COc1cnn(-c2c(Br)cccc2Oc2ncc(Cl)cn2)c1 [Compound 128]
60

Can you share its Plant response rating, Foxtail, Giant? I mean this compound: Cc1cc(C)n(-c2ccccc2Oc2ncc(Cl)cn2)n1 [Compound 264]
0

* * *

- Test system: barnyardgrass
- TEST_PROTOCOL: Test A postemergence
- Type: in vivo, Echinochloa crus-galli
- RUN_CONDITIONS: 125 g ai/ha, 0 to 100 scale, 0 no effect, 100 complete control
- Text: […]
Field: Plant response rating, Barnyardgrass. Provide a value for each of the compounds that follow.
Give only the figure.

Can you share its Plant response rating, Barnyardgrass? I mean this compound: N#Cc1cccc(Oc2ncc(Cl)cn2)c1-n1cc([N+](=O)[O-])cn1 [Compound 304]
0

Can you share its Plant response rating, Barnyardgrass? I mean this compound: Cc1cc(C)n(-c2ccccc2Oc2ncc(Cl)cn2)n1 [Compound 264]
0

Can you share its Plant response rating, Barnyardgrass? I mean this compound: Fc1cccc(Oc2ncc(Cl)cn2)c1-n1cc(-c2ccsc2)nn1 [Compound 277]
40

Can you share its Plant response rating, Barnyardgrass? I mean this compound: N#Cc1cccc(Oc2ncc(Cl)cn2)c1-n1cc(-n2ccc(C(F)(F)F)n2)cn1 [Compound 284]
30

Can you share its Plant response rating, Barnyardgrass? I mean this compound: CNN=Cc1cccc(Oc2ncc(Cl)cn2)c1-n1cc(Cl)cn1 [Compound 296]
0

Can you share its Plant response rating, Barnyardgrass? I mean this compound: CNN=Cc1cccc(Oc2ncc(Cl)cn2)c1-n1cc(Br)cn1 [Compound 289]
0

Can you share its Plant response rating, Barnyardgrass? I mean this compound: NC(=O)c1cccc(Oc2ncc(Cl)cn2)c1-n1cc(C(F)(F)F)cn1 [Compound 278]
0

* * *

- System: large (Lg) crabgrass
- TEST_PROTOCOL: Test E preemergence
- Format: in vivo, Digitaria sanguinalis
- RUN_CONDITIONS: 125 g ai/ha, scale 0 to 100, 0 no effect, 100 complete control
Field: Plant response rating, Crabgrass, Large. Provide a value for each of the compounds that follow.
Give only the figure.

Can you share its Plant response rating, Crabgrass, Large? I mean this compound: Fc1cccc(Oc2ncc(Cl)cn2)c1-n1cc(I)cn1 [Compound 179]
98

Can you share its Plant response rating, Crabgrass, Large? I mean this compound: CCOc1cnn(-c2c(C#N)cccc2Oc2ncc(F)cn2)c1 [Compound 89]
100

Can you share its Plant response rating, Crabgrass, Large? I mean this compound: N#Cc1cnn(-c2c(C#N)cccc2Oc2ncc(F)cn2)c1 [Compound 111]
100

Can you share its Plant response rating, Crabgrass, Large? I mean this compound: FC(F)(F)c1cnn(-c2ccccc2Oc2ncc(Br)cn2)c1 [Compound 18]
100

Can you share its Plant response rating, Crabgrass, Large? I mean this compound: N#Cc1cccc(Oc2ncc(Br)cn2)c1-n1cc(I)cn1 [Compound 88]
95

Can you share its Plant response rating, Crabgrass, Large? I mean this compound: Clc1cnc(Oc2ccccc2-n2cc(Br)cn2)nc1 [Compound 7]
98

* * *

Field: Wheat plant response rating (0 to 100 scale). Provide a value for each of the molecules that follow.
- System: wheat
- TEST_PROTOCOL: Test A preemergence
- Format: in vivo, Triticum aestivum
- RUN_CONDITIONS: 125 g ai/ha
Give only the figure.

Can you share its Wheat plant response rating (0 to 100 scale)? I mean this molecule: C#Cc1cnc(Oc2cccc(C#N)c2-n2cc(Br)cn2)nc1 [Compound 215]
0

Can you share its Wheat plant response rating (0 to 100 scale)? I mean this molecule: N#Cc1cc(F)cc(Oc2ncc(Br)cn2)c1-n1cc(Br)cn1 [Compound 239]
0

Can you share its Wheat plant response rating (0 to 100 scale)? I mean this molecule: COc1cnc(Oc2cccc(C#N)c2-n2cc(Br)cn2)nc1 [Compound 218]
0

Can you share its Wheat plant response rating (0 to 100 scale)? I mean this molecule: Cc1ccc(Oc2ncc(Cl)cn2)c(-n2cc(Br)cn2)c1Br [Compound 202]
0

Can you share its Wheat plant response rating (0 to 100 scale)? I mean this molecule: O=Cc1cccc(Oc2ncc(Cl)cn2)c1-n1cc(Cl)cn1 [Compound 205]
0

Can you share its Wheat plant response rating (0 to 100 scale)? I mean this molecule: FC(F)(F)c1cnn(-c2c(Cl)cccc2Oc2ncc(Cl)cn2)c1 [Compound 167]
0

Can you share its Wheat plant response rating (0 to 100 scale)? I mean this molecule: N#Cc1cnc(Oc2cccc(C(F)F)c2-n2cc(Br)cn2)nc1 [Compound 175]
0

Can you share its Wheat plant response rating (0 to 100 scale)? I mean this molecule: Fc1cccc(Oc2ncc(Cl)cn2)c1-n1cc(Br)cn1 [Compound 178]
0

Can you share its Wheat plant response rating (0 to 100 scale)? I mean this molecule: FC(F)c1cccc(Oc2ncc(I)cn2)c1-n1cc(Br)cn1 [Compound 173]
0
